Tested target: MERTK (UniProt Q12866)
Sequence (Q12866 whole entry, looked up): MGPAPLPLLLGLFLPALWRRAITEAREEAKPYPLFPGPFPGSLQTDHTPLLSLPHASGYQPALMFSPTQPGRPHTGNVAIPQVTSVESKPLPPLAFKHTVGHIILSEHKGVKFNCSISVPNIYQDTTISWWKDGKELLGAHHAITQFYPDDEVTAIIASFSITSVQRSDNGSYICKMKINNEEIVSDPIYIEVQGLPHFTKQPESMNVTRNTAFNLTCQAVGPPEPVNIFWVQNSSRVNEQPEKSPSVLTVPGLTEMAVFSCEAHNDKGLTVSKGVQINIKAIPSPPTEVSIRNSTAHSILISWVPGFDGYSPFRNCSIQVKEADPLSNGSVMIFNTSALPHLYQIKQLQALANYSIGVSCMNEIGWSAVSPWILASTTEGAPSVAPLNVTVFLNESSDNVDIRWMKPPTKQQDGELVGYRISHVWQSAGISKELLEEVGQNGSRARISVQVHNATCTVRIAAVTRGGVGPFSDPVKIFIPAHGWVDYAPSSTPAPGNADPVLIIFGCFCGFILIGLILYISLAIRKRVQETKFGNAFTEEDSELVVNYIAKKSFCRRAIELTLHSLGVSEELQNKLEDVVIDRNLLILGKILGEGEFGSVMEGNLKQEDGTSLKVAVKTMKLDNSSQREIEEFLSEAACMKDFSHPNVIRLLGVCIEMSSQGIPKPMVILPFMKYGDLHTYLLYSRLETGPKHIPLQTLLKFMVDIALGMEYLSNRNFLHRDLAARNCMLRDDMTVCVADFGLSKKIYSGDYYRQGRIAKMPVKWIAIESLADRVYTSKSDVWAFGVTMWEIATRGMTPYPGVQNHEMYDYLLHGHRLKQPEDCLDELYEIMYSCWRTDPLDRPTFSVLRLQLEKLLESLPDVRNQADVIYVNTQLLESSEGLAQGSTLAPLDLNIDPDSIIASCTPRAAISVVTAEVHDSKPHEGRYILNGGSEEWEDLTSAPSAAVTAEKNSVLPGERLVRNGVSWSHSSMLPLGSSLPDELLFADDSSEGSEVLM
Procedure text: phosphorylation enrichment, bacterial display (enrichment ratio); higher = better substrate or ligand; peptides without Tyr show the background
Assign met whenever phosphorylation enrichment does not fall below 0.6; assign not met whenever it does.

The following sequences have reported results that may help.
- Sequence string: "NESVDYRATFP [MET_Y1003]"
  Class label: "not met"
- Sequence string: "NHQFDYTFDWT [CSNK1A1_Y294_YF]"
  Class label: "not met"

Check if phosphorylation enrichment >= 0.6 (inclusive). Item: AGDGRYEVLFL [SEMA3F_Y478_A474G] met

Check if phosphorylation enrichment >= 0.6 (inclusive). Item: AQRKLYRNVML [ZNF569_Y33] not met

Check if phosphorylation enrichment >= 0.6 (inclusive). Item: IQVDAYFSPIH [ADSL_Y432] not met

Check if phosphorylation enrichment >= 0.6 (inclusive). Item: ANNEFYFQVCA not met

###

# maps each entry to its phosphorylation enrichment
Tested target: Hck (UniProt P08631)
Sequence (P08631 whole entry, looked up): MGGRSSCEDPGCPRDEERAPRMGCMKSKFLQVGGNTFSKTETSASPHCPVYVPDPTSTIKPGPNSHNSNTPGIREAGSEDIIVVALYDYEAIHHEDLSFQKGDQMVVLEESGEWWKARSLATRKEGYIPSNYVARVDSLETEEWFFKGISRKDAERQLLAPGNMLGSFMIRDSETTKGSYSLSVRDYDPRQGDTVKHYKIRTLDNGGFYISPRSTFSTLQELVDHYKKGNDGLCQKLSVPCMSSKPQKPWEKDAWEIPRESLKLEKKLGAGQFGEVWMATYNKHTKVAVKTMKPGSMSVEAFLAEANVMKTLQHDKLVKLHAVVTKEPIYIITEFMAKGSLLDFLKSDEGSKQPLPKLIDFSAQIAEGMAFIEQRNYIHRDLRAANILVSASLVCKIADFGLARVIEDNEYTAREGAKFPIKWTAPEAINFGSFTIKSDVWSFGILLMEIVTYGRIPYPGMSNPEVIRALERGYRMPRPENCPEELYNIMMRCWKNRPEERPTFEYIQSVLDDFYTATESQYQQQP
Procedure text: phosphorylation enrichment, bacterial display (enrichment ratio); higher = better substrate or ligand; peptides without Tyr show the background
A bare number is all that is needed in reply.

In the examples that follow, each entry is paired with its recorded phosphorylation enrichment.
- Sequence string: "HAVFVCDICHV [TWNK_Y508_Y508C_YF]"
  Value reported: 0.603
- Sequence string: "DRTGHYLCNAC [GATA1_Y223]"
  Value reported: 0.489
- Sequence string: "CSPLLYRVIMS [OR8D4_Y132]"
  Value reported: 0.6

Would you kindly look at the next entry?
Name the value of phosphorylation enrichment reported for RSSGPYGGGGQ [HNRNPA1_Y341] when tested on Hck (UniProt P08631). 0.616

###

Tested target: Grb2 SH2 (UniProt P62993)
Sequence (P62993 whole entry, looked up): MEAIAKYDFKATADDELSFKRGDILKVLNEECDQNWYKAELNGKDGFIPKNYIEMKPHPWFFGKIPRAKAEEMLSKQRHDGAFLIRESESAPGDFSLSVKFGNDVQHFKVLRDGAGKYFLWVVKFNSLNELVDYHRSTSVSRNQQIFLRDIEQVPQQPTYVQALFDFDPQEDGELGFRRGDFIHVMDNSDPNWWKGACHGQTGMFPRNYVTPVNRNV
Procedure text: SH2 binding enrichment of the phosphorylated peptide, bacterial display (enrichment ratio); higher = better substrate or ligand; peptides without Tyr show the background
# maps each entry to its SH2 binding enrichment
A bare number is all that is needed in reply.

- Sequence string: "FYVVRYCWLRR [MPZ_Y181]"
  Tested target: "Grb2 SH2 (UniProt P62993)"
  SH2 binding enrichment: 0.761
- Sequence string: "PNAFIYVVQLP [L1CAM_Y420_A415P_YF]"
  Tested target: "Grb2 SH2 (UniProt P62993)"
  SH2 binding enrichment: 0.931
- Sequence string: "FTGNTYRVGDT [FN1_Y106_YF]"
  Tested target: "Grb2 SH2 (UniProt P62993)"
  SH2 binding enrichment: 0.893
- Sequence string: "VPFAQYLAMNK [HARS1_Y138_R137Q]"
  Tested target: "Grb2 SH2 (UniProt P62993)"
  SH2 binding enrichment: 0.959
- Sequence string: "ALAHKCHGGGG [HBB_Y146_Y146C]"
  Tested target: "Grb2 SH2 (UniProt P62993)"
  SH2 binding enrichment: 0.829
- Sequence string: "ELPEKYSQNIY [PKP2_Y626]"
  Tested target: "Grb2 SH2 (UniProt P62993)"
  SH2 binding enrichment: 0.891
- Sequence string: "EEQKKYFNAMK [SCN5A_Y1494_YF]"
  Tested target: "Grb2 SH2 (UniProt P62993)"
  SH2 binding enrichment: 0.901
- Sequence string: "GTATTYLCGVK [ALPL_Y117_A116T]"
  Tested target: "Grb2 SH2 (UniProt P62993)"
  SH2 binding enrichment: 0.67
- Sequence string: "MDFRSYPHEFG [RBM10_Y44_R46H_YF]"
  Tested target: "Grb2 SH2 (UniProt P62993)"
  SH2 binding enrichment: 0.88
- Sequence string: "TGNGFYFRVFS [MYBPC3_Y1136_I1131T_YF]"
  Tested target: "Grb2 SH2 (UniProt P62993)"
  SH2 binding enrichment: 0.705

Would you kindly look at the next entry?
Name the value of SH2 binding enrichment reported for EGDGVYTLNNK [HP_Y125_E130K] when tested on Grb2 SH2 (UniProt P62993). 1.08

###

Test system: Fer (mouse)
Procedure text: phosphorylation enrichment, bacterial display (enrichment ratio); higher = better substrate or ligand; peptides without Tyr show the background
Measurement label: phosphorylation enrichment
A bare number is all that is needed in reply.

In the examples that follow, each entry is paired with its recorded phosphorylation enrichment.
- Sequence string: "YQKDVYNIPPS [NEDD9_Y177_D178N]"
  phosphorylation enrichment: 0.472
- Sequence string: "VNTMLYEKFTY [TEK_Y1108_T1106M]"
  phosphorylation enrichment: 10.4

Would you kindly look at the next entry?
Provide only the value of recorded phosphorylation enrichment for PESIMYRKFTT [NTRK3_Y744] 0.485

###

Tested target: EPHB1 (UniProt P54762)
Sequence (P54762 whole entry, looked up): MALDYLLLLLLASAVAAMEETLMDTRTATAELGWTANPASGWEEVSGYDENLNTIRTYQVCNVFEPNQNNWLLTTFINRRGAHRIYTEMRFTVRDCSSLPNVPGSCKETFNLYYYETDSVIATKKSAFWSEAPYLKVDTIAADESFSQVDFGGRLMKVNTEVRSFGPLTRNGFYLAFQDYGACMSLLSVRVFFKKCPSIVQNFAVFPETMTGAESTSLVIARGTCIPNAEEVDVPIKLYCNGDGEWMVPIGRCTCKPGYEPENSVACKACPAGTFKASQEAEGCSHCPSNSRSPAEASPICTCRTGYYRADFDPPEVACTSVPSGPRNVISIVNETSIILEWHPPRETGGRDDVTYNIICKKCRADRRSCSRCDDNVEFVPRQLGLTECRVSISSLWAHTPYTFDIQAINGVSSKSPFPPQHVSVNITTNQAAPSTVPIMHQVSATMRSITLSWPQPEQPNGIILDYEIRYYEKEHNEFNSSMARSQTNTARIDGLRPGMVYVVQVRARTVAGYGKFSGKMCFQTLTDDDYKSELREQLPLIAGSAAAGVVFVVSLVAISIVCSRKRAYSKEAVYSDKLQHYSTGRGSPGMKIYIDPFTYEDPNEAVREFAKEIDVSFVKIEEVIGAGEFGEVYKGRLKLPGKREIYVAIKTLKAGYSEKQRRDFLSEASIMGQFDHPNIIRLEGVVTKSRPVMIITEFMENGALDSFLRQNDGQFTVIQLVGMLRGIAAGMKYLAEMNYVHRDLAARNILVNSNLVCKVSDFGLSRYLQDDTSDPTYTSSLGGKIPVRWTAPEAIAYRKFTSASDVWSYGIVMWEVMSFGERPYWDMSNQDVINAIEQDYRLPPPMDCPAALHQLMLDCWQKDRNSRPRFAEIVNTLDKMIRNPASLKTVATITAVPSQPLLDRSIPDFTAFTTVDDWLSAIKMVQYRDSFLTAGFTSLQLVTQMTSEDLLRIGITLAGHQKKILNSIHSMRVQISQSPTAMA
Procedure text: phosphorylation enrichment, bacterial display (enrichment ratio); higher = better substrate or ligand; peptides without Tyr show the background
Measurement label: phosphorylation enrichment
A bare number is all that is needed in reply.

In the examples that follow, each entry is paired with its recorded phosphorylation enrichment.
- Sequence string: "LIHLHYIRRDF [BBS4_Y43_K46R_YF]"
  phosphorylation enrichment: 0.669
- Sequence string: "SVTCTYSPVLN [TP53_Y126_A129V]"
  phosphorylation enrichment: 0.795
- Sequence string: "VDESLYKTHPQ [HK1_Y417_G414E]"
  phosphorylation enrichment: 0.513
- Sequence string: "VIIVLYFSLWK [SLC6A2_Y249_V245I]"
  phosphorylation enrichment: 0.363
- Sequence string: "DLDTEYGSGFP [RNASEH2A_Y206_D205E_YF]"
  phosphorylation enrichment: 0.676
- Sequence string: "RLRKYYLGKYL [KLB_Y906]"
  phosphorylation enrichment: 0.429

Name the value of phosphorylation enrichment reported for SVKVYYKKCWS [EPHA7_Y202] when tested on EPHB1 (UniProt P54762). 0.549

Name the value of phosphorylation enrichment reported for HSDYQYGQRSQ [PKP2_Y168_S169G] when tested on EPHB1 (UniProt P54762). 0.449

Name the value of phosphorylation enrichment reported for LGGSPYPSVPV [FGFR1_Y701_G703S] when tested on EPHB1 (UniProt P54762). 0.85

Name the value of phosphorylation enrichment reported for MKGEYYRYLAE [YWHAG_Y131_D129E] when tested on EPHB1 (UniProt P54762). 0.685

###

Tested target: FGFR3 (UniProt P22607)
Sequence (P22607 whole entry, looked up): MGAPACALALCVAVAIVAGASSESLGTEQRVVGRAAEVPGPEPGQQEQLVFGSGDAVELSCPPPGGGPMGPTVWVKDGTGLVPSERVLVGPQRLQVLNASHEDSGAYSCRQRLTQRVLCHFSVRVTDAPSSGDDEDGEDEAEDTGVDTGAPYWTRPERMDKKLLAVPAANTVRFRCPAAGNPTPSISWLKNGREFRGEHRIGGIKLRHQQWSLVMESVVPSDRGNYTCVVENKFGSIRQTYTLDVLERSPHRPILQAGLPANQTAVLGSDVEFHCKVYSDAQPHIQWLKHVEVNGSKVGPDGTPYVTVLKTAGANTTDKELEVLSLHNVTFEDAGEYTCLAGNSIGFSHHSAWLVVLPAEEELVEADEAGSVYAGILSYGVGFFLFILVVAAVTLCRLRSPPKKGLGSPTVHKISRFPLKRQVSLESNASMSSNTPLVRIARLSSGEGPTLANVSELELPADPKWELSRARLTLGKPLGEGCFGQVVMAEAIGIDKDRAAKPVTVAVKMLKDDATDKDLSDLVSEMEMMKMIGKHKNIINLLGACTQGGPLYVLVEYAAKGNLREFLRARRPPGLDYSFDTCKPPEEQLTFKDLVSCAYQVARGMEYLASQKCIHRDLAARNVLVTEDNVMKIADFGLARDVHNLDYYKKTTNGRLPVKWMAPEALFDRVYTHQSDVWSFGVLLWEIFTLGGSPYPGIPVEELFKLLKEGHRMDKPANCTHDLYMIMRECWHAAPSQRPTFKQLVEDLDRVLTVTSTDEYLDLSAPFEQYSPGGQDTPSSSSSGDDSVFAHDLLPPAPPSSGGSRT
Procedure text: phosphorylation enrichment, bacterial display (enrichment ratio); higher = better substrate or ligand; peptides without Tyr show the background
Measurement label: phosphorylation enrichment
A bare number is all that is needed in reply.

- Sequence string: "IENKLCGMSDP [RET_Y1062_Y1062C]"
  phosphorylation enrichment: 0.774
- Sequence string: "ISDDNYGRIRL [ARCN1_Y310_K309N]"
  phosphorylation enrichment: 0.428
- Sequence string: "DGKYSYLKVGH [GRM3_Y480_G475D]"
  phosphorylation enrichment: 0.427
- Sequence string: "IAINKYGVSLI [MYO7A_Y2136]"
  phosphorylation enrichment: 0.594
- Sequence string: "RRIHRYRGHLW [VHL_Y112_S111R]"
  phosphorylation enrichment: 0.452

Provide only the value of recorded phosphorylation enrichment for EPGNLYIAKVE [CNTN4_Y180_T176P] 0.605

Provide only the value of recorded phosphorylation enrichment for LGQRIYQYIRS [DYRK1B_Y271_Q275R] 0.959

Provide only the value of recorded phosphorylation enrichment for ELPEKYSQNIY [PKP2_Y626] 0.763

Provide only the value of recorded phosphorylation enrichment for GQECKYPPTQD [METAP2_Y137_E136K] 0.638

###

Tested on: AncSZ
Procedure text: phosphorylation enrichment, bacterial display (enrichment ratio); higher = better substrate or ligand; peptides without Tyr show the background
# maps each entry to its phosphorylation enrichment
A bare number is all that is needed in reply.

In the examples that follow, each entry is paired with its recorded phosphorylation enrichment.
- Sequence string: "VTGWGYRKLRD [F11_Y521]"
  phosphorylation enrichment: 0.792
- Sequence string: "ANFTEYVATSW [CDKL5_Y171_R175S_YF]"
  phosphorylation enrichment: 0.983

Provide only the value of recorded phosphorylation enrichment for EFEGLYQEGGG [TMEM159_Y159] 0.974

Provide only the value of recorded phosphorylation enrichment for TGEKLYQRKEF [ZNF283_Y627] 0.813

###

Tested target: EPHB2 (UniProt P29323)
Sequence (P29323 whole entry, looked up): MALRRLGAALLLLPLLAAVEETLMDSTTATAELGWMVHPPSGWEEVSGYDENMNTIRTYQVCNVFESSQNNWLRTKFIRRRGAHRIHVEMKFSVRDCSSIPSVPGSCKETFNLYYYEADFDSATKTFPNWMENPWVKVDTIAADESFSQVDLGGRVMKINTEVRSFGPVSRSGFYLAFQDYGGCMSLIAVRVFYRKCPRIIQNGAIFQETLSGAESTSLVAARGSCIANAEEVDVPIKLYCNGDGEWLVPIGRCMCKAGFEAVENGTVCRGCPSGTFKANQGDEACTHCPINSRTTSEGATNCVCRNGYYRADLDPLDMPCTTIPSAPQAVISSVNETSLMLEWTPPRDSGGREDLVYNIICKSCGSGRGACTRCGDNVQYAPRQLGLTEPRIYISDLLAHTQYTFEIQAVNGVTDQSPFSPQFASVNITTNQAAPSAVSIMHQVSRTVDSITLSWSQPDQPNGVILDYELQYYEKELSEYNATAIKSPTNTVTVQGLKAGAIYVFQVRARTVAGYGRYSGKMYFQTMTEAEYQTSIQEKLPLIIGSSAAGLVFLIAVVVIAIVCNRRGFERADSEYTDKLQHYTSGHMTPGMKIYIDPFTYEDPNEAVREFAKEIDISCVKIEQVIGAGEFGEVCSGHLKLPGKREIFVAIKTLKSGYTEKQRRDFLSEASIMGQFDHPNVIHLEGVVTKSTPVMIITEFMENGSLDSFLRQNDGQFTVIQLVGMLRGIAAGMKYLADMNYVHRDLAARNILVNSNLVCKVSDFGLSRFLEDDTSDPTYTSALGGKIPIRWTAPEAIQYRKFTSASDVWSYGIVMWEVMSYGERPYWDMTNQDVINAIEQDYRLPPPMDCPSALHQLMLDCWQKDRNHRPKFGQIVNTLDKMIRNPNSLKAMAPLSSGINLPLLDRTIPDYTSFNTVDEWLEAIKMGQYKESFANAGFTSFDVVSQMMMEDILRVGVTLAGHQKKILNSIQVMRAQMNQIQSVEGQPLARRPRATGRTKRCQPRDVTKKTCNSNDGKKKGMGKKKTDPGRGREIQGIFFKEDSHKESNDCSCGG
Procedure text: phosphorylation enrichment, bacterial display (enrichment ratio); higher = better substrate or ligand; peptides without Tyr show the background
Measurement label: phosphorylation enrichment
A bare number is all that is needed in reply.

In the examples that follow, each entry is paired with its recorded phosphorylation enrichment.
- Sequence string: "SFCFRYCCAAR [SUMF1_Y344_R345C_YF]"
  phosphorylation enrichment: 0.611
- Sequence string: "EPTPGYEVGQR [TSC2_Y1788]"
  phosphorylation enrichment: 0.585

Would you kindly look at the next entry?
Provide only the value of recorded phosphorylation enrichment for CTTIHYNFTCN [TP53_Y234_M237T_YF] 0.6
